experiment: In vivo PK after single p.o. and i.v. dosing in CD-1 mice; set-up: species or system female CD-1 mice; conditions: female, mouse, plasma, iv; i.v. 5 mg/kg, CD-1 mice; read-out: t1/2 (i.v.) (converted)
ENDPOINT NAME: half-life (h)
Entry rule: numbers only, all in h.

INPUT: Requested read-out: half-life. Entry: C[C@H]1Cc2c([nH]c3cc(Cl)c(F)cc23)[C@@]2(N1)C(=O)Nc1ccc(Cl)cc12 [(+)-7 (KAE609)]
OUTPUT: 3.4

---

tested on: P. berghei GFP ANKA malaria strain PbGFPCON; assay: Dose-response efficacy in the P. berghei malaria mouse model; format: in vivo, female NMRI mice; conditions: sigmoid dose-response model, single oral doses 24 h postinfection, parasitemia 72 h postinfection
Give measured Pmin (minimum parasitemia) for each item. Keep answers brief.

INPUT: Requested read-out: Pmin (minimum parasitemia). Entry: C[C@H]1Cc2c([nH]c3cc(Cl)ccc23)[C@@]2(N1)C(=O)Nc1ccc(Cl)cc12 [(+)-3]
OUTPUT: 0.12

INPUT: Requested read-out: Pmin (minimum parasitemia). Entry: C[C@H]1Cc2c([nH]c3ccc(Cl)cc23)[C@@]2(N1)C(=O)Nc1ccc(Cl)cc12 [(+)-2]
OUTPUT: 0.03

INPUT: Requested read-out: Pmin (minimum parasitemia). Entry: C[C@H]1Cc2c([nH]c3cc(F)ccc23)[C@@]2(N1)C(=O)Nc1ccc(Cl)cc12 [(+)-5]
OUTPUT: 0.05

INPUT: Requested read-out: Pmin (minimum parasitemia). Entry: C[C@H]1Cc2c([nH]c3cc(F)c(F)cc23)[C@@]2(N1)C(=O)Nc1ccc(Cl)cc12 [(+)-6]
OUTPUT: 0.09

INPUT: Requested read-out: Pmin (minimum parasitemia). Entry: C[C@H]1Cc2c([nH]c3ccc(F)cc23)[C@@]2(N1)C(=O)Nc1ccc(Cl)cc12 [(+)-4]
OUTPUT: 0.03

INPUT: Requested read-out: Pmin (minimum parasitemia). Entry: C[C@H]1Cc2c([nH]c3ccccc23)[C@@]2(N1)C(=O)Nc1ccc(Cl)cc12 [(+)-1]
OUTPUT: 0.03

INPUT: Requested read-out: Pmin (minimum parasitemia). Entry: C[C@H]1Cc2c([nH]c3cc(Cl)c(F)cc23)[C@@]2(N1)C(=O)Nc1ccc(Cl)cc12 [(+)-7 (KAE609)]
OUTPUT: 0.29
